- Test system: NCI-H292 lung cancer cells
- run-description: FDA drug screening, complete media vs cholesterol-free media without statin (TABLE 1)
- Format: cell-based, human
- measurement-conditions: Complete minus Cholesterol-free; >0 enhanced anti-cancer activity, about 0 neutral, <0 antagonist
Below: a set of entries, each annotated with reported Difference.
I only need the number, thanks.

Completed entries (count: 4):
compound	Difference
C[C@@H]1[C@H](O)[C@@H](C)/C=C/C=C/C=C/C=C/C=C/C=C/C=C/[C@H](O[C@@H]2O[C@H](C)[C@@H](O)[C@H](N)[C@@H]2O)C[C@@H]2O[C@](O)(C[C@@H](O)C[C@@H](O)[C@H](O)CC[C@@H](O)C[C@@H](O)CC(=O)O[C@H]1C)C[C@H](O)[C@H]2C(=O)O	0.05
Cc1cnc(Nc2ccc(OCCN3CCCC3)cc2)nc1Nc1cccc(S(=O)(=O)NC(C)(C)C)c1	−0.27
CC(C)(O)C(Cl)(Cl)Cl	0.02
CN(C)c1nc(N(C)C)nc(N(C)C)n1	−0.04

stdin: Would you kindly share the measured Difference for `CCOC(=O)N[C@@H]1CC[C@@H]2[C@@H](C1)C[C@H]1C(=O)O[C@H](C)[C@H]1[C@H]2/C=C/c1ccc(-c2cccc(F)c2)cn1` ?
stdout: −0.20

stdin: Would you kindly share the measured Difference for O=C1NC(=O)C(c2ccccc2)(c2ccccc2)N1 [Phenytoin (sodium)] ?
stdout: −0.27

----------
- Tested on: NCI-H292 lung cancer cells
- run-description: FDA drug screening, complete media vs cholesterol-free media without statin (TABLE 1)
- Assay type: cell-based, human
- measurement-conditions: NCI-H292 cells in complete media
Counter-ions that a name gives are not always drawn.
Below: a set of entries, each annotated with reported Complete.
I only need the number, thanks.

Completed entries (count: 4):
compound	Complete
CC1=C(/C=C/C(C)=C/C=C/C(C)=C/C=C/C=C(C)/C=C/C=C(C)/C=C/C2=C(C)CCCC2(C)C)C(C)(C)CCC1	0.6506
CO/N=C(\C(=O)N[C@@H]1C(=O)N2C(C(=O)[O-])=C(C[N+]3(C)CCCC3)CS[C@H]12)c1csc(N)n1 [Cefepime (Dihydrochloride Monohydrate)]	0.6874
COc1cc2nc(N3CCN(C(=O)c4ccco4)CC3)nc(N)c2cc1OC [Prazosin (hydrochloride)]	1.105
CCOC(=O)/C=C(C)/C=C/C=C(C)/C=C/c1c(C)cc(OC)c(C)c1C [Etretinate]	0.7469

stdin: Would you kindly share the measured Complete for `CC[C@H]1OC(=O)[C@H](C)C(=O)[C@H](C)[C@@H](O[C@@H]2O[C@H](C)C[C@H](N(C)C)[C@H]2O)[C@](C)(OC)C[C@@H](C)C(=O)[C@H](C)[C@H]2N(CCCCn3cnc(-c4cccnc4)c3)C(=O)O[C@]12C` ?
stdout: 0.8019

stdin: Would you kindly share the measured Complete for `OC[C@H]1O[C@@](CO)(O[C@H]2O[C@H](CO)[C@@H](O)[C@H](O)[C@H]2O)[C@@H](O)[C@@H]1O` ?
stdout: 0.843

----------
- Tested on: NCI-H292 lung cancer cells
- run-description: FDA drug screening, complete media vs cholesterol-free media without statin (TABLE 1)
- Assay type: cell-based, human
- measurement-conditions: NCI-H292 cells, complete media
Where a name gives a salt, the structure may show the parent alone.
Below: a set of entries, each annotated with reported Complete.
I only need the number, thanks.

molecule	reading
CCC(CC)[C@H](NC(C)=O)[C@@H]1[C@H](O)[C@@H](C(=O)O)C[C@H]1NC(=N)N.O.O.O [Peramivir (trihydrate)]	1.606
CC(C)(C)NC(=O)[C@H]1CC[C@H]2[C@@H]3CC[C@H]4NC(=O)C=C[C@]4(C)[C@H]3CC[C@]12C [Finasteride]	0.7878
O=C(Oc1ccccc1C(=O)O)c1ccccc1O [Salsalate]	1.132
CCCCOCCOCCOCc1cc2c(cc1CCC)OCO2 [Piperonyl butoxide]	1.202
CCN(CC)CCOC(=O)c1ccc(N)cc1Cl [Chloroprocaine (hydrochloride)]	0.8831
CCN1CCCC1CNC(=O)c1cc(S(N)(=O)=O)ccc1OC (stereo not drawn) [Sulpiride]	1.03
CCOC(=O)[C@H](CCc1ccccc1)N[C@H]1CCc2ccccc2N(CC(=O)O)C1=O [Benazepril (hydrochloride)]	0.8774
Nc1cccc2c1C(=O)N(C1CCC(=O)NC1=O)C2=O (stereo not drawn) [Pomalidomide]	1.095
N[C@H]1C(O)O[C@H](CO)[C@@H](O)[C@@H]1O (stereo partly drawn)	0.7725
CCc1ccc(Cc2ccc3c(c2)[C@]2(OC3)O[C@H](CO)[C@@H](O)[C@H](O)[C@H]2O)cc1 [Tofogliflozin (hydrate)]	1.03

stdin: Would you kindly share the measured Complete for `COP(=S)(OC)Oc1ccc([N+](=O)[O-])c(C)c1` ?
stdout: 0.6445

stdin: Would you kindly share the measured Complete for `Cc1c(O)cccc1C(=O)N[C@@H](CSc1ccccc1)[C@H](O)CN1C[C@H]2CCCC[C@H]2C[C@H]1C(=O)NC(C)(C)C` ?
stdout: 0.8463

stdin: Would you kindly share the measured Complete for `CCCCCOC(=O)Nc1nc(=O)n([C@@H]2O[C@H](C)[C@@H](O)[C@H]2O)cc1F` ?
stdout: 0.9364

stdin: Would you kindly share the measured Complete for COc1cccc(CCc2ccccc2OCC(CN(C)C)OC(=O)CCC(=O)O)c1 (stereo not drawn) [Sarpogrelate (hydrochloride)] ?
stdout: 0.6472

stdin: Would you kindly share the measured Complete for CC(=O)CC(c1ccc([N+](=O)[O-])cc1)c1c(O)c2ccccc2oc1=O (stereo not drawn) ?
stdout: 1.605
